Assay: Nrf2 qHTS screen for inhibitors; further: nearly all actives have a fitted effect of over 60% in size; further: potency means the concentration at half of the fitted maximal effect
Details: A549 ARE-Fluc reporter, luciferase luminescence, 18-24 h; series mostly up to 46 µM
Method: NIH Molecular Libraries Probe Production Network [MLPCN] NIH Chemical Genomics Center [NCGC] Assay Provider: Shyam Biswal, Johns Hopkins University […] This is the Nrf2 activity measured in the luminescent read. […] A concentration-response assay was performed with A549 ARE_Fluc cells which are suspended in 5% FBS OPTI-MEM. […] Afterwards another ViewLux read is performed using the clear filter to get a luminescent read with the settings of 40 second exposure, 2x binning, and high gain. […]
About 7,500 (2.1%) of roughly 360,000 compounds were called active. Roughly 20% stayed inconclusive and do not appear here. The entries come from a sample that favours actives as a whole.
Recorded metric: Potency

Worked cases, answers included:
CC(=O)Nc1ccc(C(=O)CSc2nc3ccc(C)cc3[nH]2)cc1: inactive
Cc1cccc(NC(=O)CN(c2ccc(C(C)C)cc2)S(=O)(=O)c2c(C)nn(C)c2C)c1C: inactive
CC(C)=C1SC(N2CCN(c3ccc(C)c(Cl)c3)CC2)=NC1=O: inactive
CCOC(=O)N1CCc2c(sc3c2c(=O)n(-c2ccc(CC)cc2)c(=O)n3C)C1: inactive
O=C1c2ccccc2C2=Nc3ccccc3SC(c3ccccc3F)C12 (stereo unspecified): 23.1 µM (active)
CC1(C)O[C@@H]2CC3C4C[C@H](F)C5=CC(=O)C=CC5(C)C4C(O)CC3(C)[C@]2(C(=O)CO)O1 (stereo partly specified): 0.0046 µM (active)
Cc1cc(C(=O)OCC(=O)Nc2nnc(C(C)C)s2)c2ccccc2n1: inactive
Cc1cc(C)c(NC(=O)CSc2nc3ccncc3[nH]2)c(C)c1: inactive
CCc1ccc(NC(=O)CCCc2nnc3n(CCCOC)c(=O)c4sccc4n23)cc1: inactive
CC(C)(C)Nc1nc(-c2ccccn2)nc2ccccc12: 20.6 µM (active)

Q: Need Potency, item `Cc1ccc(N2CCN(C3=NC(=O)/C(=C\c4cccs4)S3)CC2)cc1`
Result: inactive

Q: Similarly, `CCOc1ccc(C(=O)c2cn(Cc3ccccc3OC)c3ccc(F)cc3c2=O)cc1` ?
Result: inactive

###

assay: Nrf2 qHTS screen for inhibitors; conditions: A549 ARE-Fluc reporter, luciferase luminescence, 18-24 h; series mostly up to 46 µM; further: nearly all actives have a fitted effect of over 60% in size
About 7,500 (2.1%) of roughly 360,000 compounds were called active. Inconclusive results (about 20%) are left out. The call rests on the fitted dose curve; in most records, active means well fitted inhibition curve with a large enough effect; inconclusive means small, poorly fitted or top-dose-only effect, or effect the other way; inactive means flat fitted curve, though single readings scatter. The full list was thinned out, with actives kept by preference.
Please answer using one outcome listed in 1 (active), 0 (inactive)

O=C(c1ccncc1)N1CCN(S(=O)(=O)c2cc(C(F)(F)F)cc(C(F)(F)F)c2)CC1: 0
CCOc1ccc2nc(NC(=O)c3cc([N+](=O)[O-])ccc3N3CCOCC3)sc2c1: 0

Q: Could you kindly confirm the outcome this assay logged for `CCOC(=O)/C(C#N)=C/c1ccc(N2CCCCC2)cc1` ?
Result: 0

Q: Similarly, `COc1cc2c(C(=O)O)c(C)n(C)c2c2ccccc12` ?
Result: 0

Q: Similarly, `CC(C)n1cnc2c(NCc3ccccc3)cc(OCC3CCN(C)CC3)cc21` ?
Result: 0

Q: Similarly, `COc1ccc(CNC(=O)C[C@H]2C[C@H](C(=O)N3CCOCC3)[C@@]3(CCC4CCCC4)c4[nH]c5ccc(Cl)cc5c4CCN3C2=O)cc1OC` ?
Result: 1

Q: Similarly, `Cc1oc(C)c2c(=O)cc(-c3ccc4c(c3)OCO4)cc(OC(=O)c3ccc(Cl)cc3)c12` ?
Result: 0
